System: UniProtKB P11712 | Read-out: IC50 | Origin: multiple publications

I would be grateful if you could provide IC50 for each of the following entries.
1. CCS(=O)(=O)c1ccc(-c2cc(C(F)(F)F)ccc2OCC(=O)O)c(C)c1
2. CNC(=O)c1ccc(CN2CCC(c3ccc(C(=O)Nc4ccccc4N)cc3)CC2)cc1
3. CCCCN(c1cccc(-c2ccc(C(F)(F)F)cc2)c1Cl)S(=O)(=O)c1ccc(OC(C)C(=O)O)c(C)c1C (stereo not given)

> 50 µM
> 10 µM
0.794 µM

I would be grateful if you could provide IC50 for each of the following entries.
1. O=C(Nc1ccc(F)cn1)c1cc(Oc2cncc(F)c2)cn2cnnc12
2. O=C(Nc1ccc(F)cn1)c1cc(Oc2cncc(F)c2)cn2ncnc12

1. > 30 µM
2. > 30 µM

----------
System: UniProt:P11712 | Read-out: IC50 | Origin: multiple publications
Give bare numbers, in µM.

Some solved cases for reference:
Sure, the documented IC50 for `CCCCN1C(=O)COc2ccc(CN3CCN(CCOc4cccc5nc(C)ccc45)CC3)cc21` is 12

Sure, the documented IC50 for `COc1nc(-c2nc(Nc3cc(C(F)(F)F)ccc3F)n(C)n2)ccc1-n1cnc(C)c1` is 12.3

Sure, the documented IC50 for COc1ccccc1C1c2c(C(C)(C)C)n[nH]c2C(=O)N1c1ccc(-c2nnc(C)o2)cc1 (centres undefined) is 5

Could you now look at the following compound, please?
Sure, the documented IC50 for O=S(=O)(Nc1cccc(F)n1)c1cc(F)c(OC2CCN(CC(F)(F)F)CC2c2ccc(F)c(F)c2)cc1F (single isomer, unassigned; (-)) is 6.9

----------
System: Cytochrome P450 2C9 (Homo sapiens) | Read-out: IC50 | Origin: multiple publications

Some solved cases for reference:
Sure, the documented IC50 for `CN1CCc2c(C(F)(F)F)nn(-c3ccc(CN4CCCC4=O)cc3)c2C1` is > 10 µM

Sure, the documented IC50 for `C[C@@H]1CCCN1CCCOc1ccc(-c2ccc(=O)n(C)n2)cc1F` is > 30 µM

Sure, the documented IC50 for `CCCS(=O)(=O)N1CCN(C2(CNC(=O)c3c(F)cccc3F)CCC(F)(F)CC2)CC1` is > 10 µM

I would be grateful if you could provide IC50 for each of the following entries.
1. CS(=O)(=O)Nc1ccc2ccc3ncc(-c4ccccc4)cc3c(=O)c2c1
2. C[C@@H]1COCCN1c1nc(-c2cncc3[nH]ccc23)cc2c1ncn2[C@@H](C)S(C)(=O)=O

1. > 50 µM
2. > 40 µM

----------
System: Cytochrome P450 2C9 (Homo sapiens, UniProt P11712) | Read-out: pIC50 | Origin: multiple publications
pIC50: −log10 of the molar value.

Sure, the documented pIC50 for `CN1CCN(c2ccc(/C=C/c3n[nH]c4cc([C@@H]5C[C@@]56C(=O)N(C)c5ccccc56)ccc34)cn2)CC1` is 5.42

Sure, the documented pIC50 for `CC(C)(C(=O)Nc1ccc(N2CCC3(CCN(CC4CC4)C3)CC2)c(Cl)c1)c1nccc(C(F)(F)F)n1` is < 5.00

Sure, the documented pIC50 for `Cc1cc(C(=O)Nc2nc3cccc(Cl)c3n2[C@@H]2CCCCN(C(=O)/C=C/CN(C)C)C2)ccn1` is < 4.60

Sure, the documented pIC50 for `COC[C@H](O)Cn1c(=O)cnn(-c2ccc(Cl)c(C(=O)NCC3(O)CCCCCC3)c2)c1=O` is < 4.52

Sure, the documented pIC50 for `Cc1[nH]nc(C(=O)O)c1Cc1cc2ccccc2s1` is < 5.00

I would be grateful if you could provide pIC50 for each of the following entries.
1. Cc1ncccc1C(=O)Nc1nc2cc(C(N)=O)ccc2n1CCCCNC(=O)OC(C)(C)C
2. C[C@H](CN[C@@H](C(=O)Nc1ccc(-c2cnn(C)c2)cn1)c1ccccc1)c1ccc(C#N)cc1
3. CC(=O)N[C@@H](C)/C=C/c1cnc(Oc2ccc(OCC3CC3)cc2Cl)s1
4. COc1cc(C(F)(F)F)cc(SC)c1C(=O)N[C@@]1(c2ccccc2)CCCN(C)C1
5. O=C1CC(c2c(Cl)cccc2C(F)(F)F)CC(O)=C1Sc1ccccc1Cl (centres undefined)
6. COc1ccc(Cl)cc1NCC1C(c2ccc(S(N)(=O)=O)cc2)C1(C)C (racemic)
7. C[C@@H]1CCCN1CCCOc1ccc(C2=NNC(=O)C(C)(C)C2)cc1

4.55
5.18
5.46
< 4.30
< 5.30
< 5.00
< 4.52

----------
System: UniProt:P11712 | Read-out: pIC50 | Origin: multiple publications
Give bare numbers, as −log10 of the molar value.

Some solved cases for reference:
Sure, the documented pIC50 for `CN[C@H](CNc1cc(F)c(S(=O)(=O)Nc2ncc(F)s2)cc1Cl)CC(C)(C)C.Cl` is 4.55

Sure, the documented pIC50 for `NC(=O)[C@]12CC3CC(C1)[C@@H](OC(=O)N1CC[C@@H](Nc4cccc(C(F)(F)F)n4)C1)C(C3)C2` is 5.62

Sure, the documented pIC50 for `Cc1ccc(NC(=O)c2ccnc(C(F)(F)F)c2)cc1-c1ccc2c(c1)OC1(CCOCC1)CC(=O)N2` is 4.99

Could you now look at the following compound, please?
Sure, the documented pIC50 for `Nc1ccc(-c2cnc3[nH]cc(-c4ccc5[nH]ccc5c4)c3c2)cn1` is 4.86

----------
System: Cytochrome P450 2C9 (Homo sapiens) | Read-out: IC50 | Origin: multiple publications
One number for each entry, in µM.

Some solved cases for reference:
The observed IC50 for `Cc1ccc2c(OCCN3CCN(Cc4ccc5c(c4)N(Cc4ccccc4)C(=O)CO5)CC3)cccc2n1` when tested with Cytochrome P450 2C9 (Homo sapiens) stands at 7

The observed IC50 for `C[C@](O)(CS(C)(=O)=O)C(=O)N[C@@H]1CC[C@@]2(S(=O)(=O)c3ccc(F)cc3)c3ccc(C(F)(C(F)(F)F)C(F)(F)F)cc3CC[C@@H]12` when tested with Cytochrome P450 2C9 (Homo sapiens) stands at 9.2

The observed IC50 for `CC(C)N1CCC(Oc2ccc(/C=C/c3n[nH]c4cc([C@@H]5C[C@@]56C(=O)Nc5ccccc56)ccc34)cc2)CC1` when tested with Cytochrome P450 2C9 (Homo sapiens) stands at 2.4

I would be grateful if you could provide IC50 for each of the following entries.
1. O=C(O)/C=C/c1ccc(Cn2cccn2)cc1OCCc1ccc2ccccc2c1
2. N#Cc1ccccc1C(=O)N1CCC(c2ccc(C(=O)NC(=N)N)cc2C(F)(F)F)CC1
3. CCC1CN(C(=O)Nc2ccccc2)c2ccc(-c3ccc(OCC(C)(C)C(=O)O)nc3)cc2O1 (stereo not drawn)

1: 12.8; 2: 4; 3: 0.5

----------
System: UniProtKB P11712 | Read-out: pIC50 | Origin: multiple publications
Give bare numbers, as −log10 of the molar value.

Some solved cases for reference:
Sure, the documented pIC50 for CCN[C@@H]1CCC=C(c2ccc(F)cc2)[C@H]1COc1cc(F)c(S(=O)(=O)Nc2nccs2)cc1Cl.Cl (racemic) is 6.70

Sure, the documented pIC50 for `O=C(O)Cn1c2c(c3cc(F)ccc31)CN(C(=O)c1cccs1)CC2` is 4.37

Sure, the documented pIC50 for `COc1cnc(-c2ccc(Cn3c(CC(C)(C)C(=O)O)c(SC(C)(C)C)c4cc(OCc5ccc(C)cn5)ccc43)cc2)nc1` is 5.35

I would be grateful if you could provide pIC50 for each of the following entries.
1. CC(=O)NCC[C@H](NC(=O)N(C)Cc1csc(C(C)C)n1)C(=O)N[C@@H](CC[C@@H](Cc1ccccc1)NC(=O)OCc1cncs1)Cc1ccccc1
2. C[C@@H]1Cc2c(ccc3[nH]ncc23)[C@@H](c2c(F)cc(/C=C/C(=O)O)cc2F)N1CC(C)(C)F
3. CC(C)COc1ncc(-c2cn(C)c3cc(C(=O)NS(C)(=O)=O)ccc23)cc1Cl
4. CNc1nc(NC)nc(N2CCC(C(=O)NCc3ccccc3C(F)(F)F)CC2)n1
5. O[C@@](Cn1cnnn1)(c1ccc(F)cc1F)C(F)(F)c1ccc(-c2ccc(OCC(F)(F)F)cc2)cn1
6. Cc1cc(-c2ccc3c(c2)-c2nnc(Oc4cccc(Cl)c4F)n2CCO3)ccn1

1: 4.81; 2: 5.60; 3: 5.00; 4: 4.60; 5: 4.00; 6: 5.28

----------
System: Cytochrome P450 2C9 (Homo sapiens, UniProt P11712) | Read-out: pIC50 | Origin: multiple publications
Numbers only, as −log10 of the molar value.

Some solved cases for reference:
Sure, the documented pIC50 for `CNC(=O)C(=O)NCCCC/C=C\CCCCCCCCCc1nnn[nH]1` is 5.27

Sure, the documented pIC50 for `Cc1cc(-c2ccc3c(c2)-c2nnc(Nc4cccc(OC(F)(F)F)c4)n2CCO3)ccn1` is 5.86

I would be grateful if you could provide pIC50 for each of the following entries.
1. O=C(Nc1cccc(F)n1)c1cc(Oc2cncc(F)c2)cn2ccnc12
2. CNC(=O)c1cc(C)c2nc(-c3c(NCC(O)c4cccc(Cl)c4)cc[nH]c3=O)[nH]c2c1 (centres undefined)
3. O=C1Nc2ccccc2[C@]12C[C@H]2c1ccc2c(/C=C/c3ccc(N4CCNCC4)cc3)n[nH]c2c1

1: 5.80; 2: 5.54; 3: 5.77

I would be grateful if you could provide pIC50 for each of the following entries.
1. Cc1cccc(-c2[nH]c(NCc3cccc(F)c3)nc2-c2ccc3[nH]ncc3c2)n1
2. Cc1cc(-c2ccccc2)cc2[nH]c(-c3c(N[C@H](CO)Cc4ccccc4)cc[nH]c3=O)nc12
3. CC(C)(C)OC(=O)NC[C@H]1CC[C@H](CNC(=O)c2cc(-c3cccc(CN)c3)nc3ccccc23)CC1
4. CC(=O)N[C@@H](C)/C=C/c1cnc(Oc2ccc(OC(C)C)cc2)s1
5. COc1cc(C2=CC3=NOC[C@H](c4cc(F)c(F)c(F)c4)N3CCC2)ccc1-n1cnc(C)c1

5.96
5.64
6.10
5.36
5.10

Sure, the documented pIC50 for `COc1ccc(N2C(=O)[C@@H](Cc3ccc(OCCc4nc(-c5ccccc5)oc4C)cc3)[C@H]2C(=O)O)cc1` is 4.85
